Just for reference, PubChem BioAssay is where these values come from.

Exercise: state measured liver cell % of control for each of the compounds provided.
- assay.info: kinase inhibitors against Plasmodium liver-stage infection, cell-based, known kinase inhibitor set, luminescence, hepatoma host viability (AID 624392);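 further: infected cells incubated roughly two days before readout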
- study.conditions: Plasmodium liver stage in hepatoma cells, luciferase luminescence, concentration not given here; measured here: host liver cell viability
Give bare numbers, in %.

These solved cases illustrate the format of a correct answer.
Nc1ncnc2occ(-c3ccc(NC(=O)Nc4cc(C(F)(F)F)cc(C(F)(F)F)c4)cc3)c12 : 58.8
Cn1cc(C2=C(c3cn(C)c4cc(Cl)ccc34)C(=O)NC2=O)c2ccccc21 : 82.6

Look up liver cell % of control for the entries below, preserving their order.
1. N#Cc1ccc(Oc2nccc(-c3c(-c4ccc(F)cc4)ncn3C3CCNCC3)n2)cc1
2. CNCC#Cc1c(F)ccc2c1C(=Cc1[nH]ccc1OC)C(=O)N2
3. COc1cc(/C=N/Nc2ncnc3c2cnn3-c2ccccc2)ccc1O
4. O=C1NC(O)C(c2c[nH]c3ccccc23)=C1c1c[nH]c2ccccc12 (centres undefined)
5. Cn1cc(C2=C(c3cn(CCCCCSC(=N)N)c4ccccc34)C(=O)NC2=O)c2ccccc21
6. Cn1cc(/C=C2\C(=O)Nc3cccnc32)c2ccccc21

[76.8, 149, 108, 141, 88.1, 210]

Look up liver cell % of control for the entries below, preserving their order.
1. COc1ccc2c(C3=C(c4cn(C)c5ccccc45)C(=O)NC3=O)cn(C)c2c1
2. O=C(Nc1ccc(Oc2ccc3nc(NC(=O)c4ccccc4)[nH]c3c2)cc1)Nc1cc(C(F)(F)F)ccc1F
3. CNC(=O)c1cncc(/C=C/c2ccccc2Cl)c1
4. Cc1cccc(Oc2nccc(-c3c(-c4ccc(F)cc4)ncn3C3CCNCC3)n2)c1C
5. CCS(=O)(=O)c1ccc(OC)c(Nc2ncc(-c3cccc(F)c3)o2)c1
6. COc1cccc(-n2ncc3c(N/N=C/c4ccc(C)cc4)ncnc32)c1

1: 79.3; 2: 151; 3: 165; 4: 58.8; 5: 140; 6: 114

Look up liver cell % of control for the entries below, preserving their order.
1. Nc1c(C(=O)c2ccccc2)cnn1-c1ccc(F)cc1
2. CCn1c(-c2nonc2N)nc2c(C#CC(C)(C)O)nc(O[C@@H](CN)c3ccccc3)cc21
3. COc1ccccc1Oc1nccc(-c2c(-c3ccc(F)cc3)ncn2C2CCNCC2)n1
4. CC1=C(C(=O)Nc2cc(Cl)c3[nH]ncc3c2)C(c2ccc(C(F)(F)F)cc2)CC(=O)N1 (centres undefined)
5. COc1cccc(C2=C(c3cn(C)c4cc(C)ccc34)C(=O)NC2=O)c1

1: 97.1; 2: 49.4; 3: 89.7; 4: 106; 5: 112

Look up liver cell % of control for the entries below, preserving their order.
1. O=C(O[C@H]1CN[C@H](C#Cc2cc3ncnc(Nc4ccc(OCc5cccc(F)c5)c(Cl)c4)c3s2)C1)N1CCOCC1
2. CC(=O)NC(Cc1ccc(OP(=O)(O)O)cc1)C(=O)NC1CCC(=O)N2CCCC(C(=O)NCc3ccc(Cl)cc3)N2C1=O (centres undefined)

1: 89.4; 2: 96.1
